target.desc: feline FcRn complex (FcRn-α subunit and β-microglobulin) (feline)
assay.method.text: SPR (Biacore), FcRn on SA chip, pH 7.4
endpoint: pKd
The scale used: pKd is minus the common logarithm of the concentration in molar units.

Examples with answers:
binder	pKd
feline IgG1a mutant ID No. 351: S252Y, S428M, S434F, Q311W (antibody, part only; not given: Variable domains, not shown: another chain or arm of the molecule) constant: ASTTAPSVFPLAPSCGTTSGATVALACLVLGYFPEPVTVSWNSGALTSGVHTFPAVLQASGLYSLSSMVTVPSSRWLSDTFTCNVAHPPSNTKVDKTVRKTDHPPGPKPCDCPKCPPPEMLGGPSIFIFPPKPKDTLYISRTPEVTCLVVDLGPDDSDVQITWFVDNTQVYTAKTSPREEQFNSTYRVVSVLPILHWDWLKGKEFKCKVNSKSLPSPIERTISKAKGQPHEPQVYVLPPAQEELSRNKVSVTCLIKSFHPPDIAVEWEITGQPEPENNYRTTPPQLDSDGTYFVYSKLSVDRSHWQRGNTYTCSVMHEALHFHHTQKSLTQSPGK	8.47
feline IgG1a mutant ID No. 370: S252Y, S434R, Q311H (antibody, part only; not given: variable domains and light chain, not shown: another chain or arm of the molecule) constant: ASTTAPSVFPLAPSCGTTSGATVALACLVLGYFPEPVTVSWNSGALTSGVHTFPAVLQASGLYSLSSMVTVPSSRWLSDTFTCNVAHPPSNTKVDKTVRKTDHPPGPKPCDCPKCPPPEMLGGPSIFIFPPKPKDTLYISRTPEVTCLVVDLGPDDSDVQITWFVDNTQVYTAKTSPREEQFNSTYRVVSVLPILHHDWLKGKEFKCKVNSKSLPSPIERTISKAKGQPHEPQVYVLPPAQEELSRNKVSVTCLIKSFHPPDIAVEWEITGQPEPENNYRTTPPQLDSDGTYFVYSKLSVDRSHWQRGNTYTCSVSHEALHRHHTQKSLTQSPGK	7.50
feline IgG1a mutant ID No. 367: S252Y, S434R, G402R (antibody, part only; not given: Variable domains, not shown: another chain or arm of the molecule) constant: ASTTAPSVFPLAPSCGTTSGATVALACLVLGYFPEPVTVSWNSGALTSGVHTFPAVLQASGLYSLSSMVTVPSSRWLSDTFTCNVAHPPSNTKVDKTVRKTDHPPGPKPCDCPKCPPPEMLGGPSIFIFPPKPKDTLYISRTPEVTCLVVDLGPDDSDVQITWFVDNTQVYTAKTSPREEQFNSTYRVVSVLPILHQDWLKGKEFKCKVNSKSLPSPIERTISKAKGQPHEPQVYVLPPAQEELSRNKVSVTCLIKSFHPPDIAVEWEITGQPEPENNYRTTPPQLDSDRTYFVYSKLSVDRSHWQRGNTYTCSVSHEALHRHHTQKSLTQSPGK	7.35

Please turn your attention to the following entry.
// feline IgG1a mutant ID No. 378: S252Y, S434R, T403R (antibody, part only; not given: Variable domains, not shown: another chain or arm of the molecule) constant: ASTTAPSVFPLAPSCGTTSGATVALACLVLGYFPEPVTVSWNSGALTSGVHTFPAVLQASGLYSLSSMVTVPSSRWLSDTFTCNVAHPPSNTKVDKTVRKTDHPPGPKPCDCPKCPPPEMLGGPSIFIFPPKPKDTLYISRTPEVTCLVVDLGPDDSDVQITWFVDNTQVYTAKTSPREEQFNSTYRVVSVLPILHQDWLKGKEFKCKVNSKSLPSPIERTISKAKGQPHEPQVYVLPPAQEELSRNKVSVTCLIKSFHPPDIAVEWEITGQPEPENNYRTTPPQLDSDGRYFVYSKLSVDRSHWQRGNTYTCSVSHEALHRHHTQKSLTQSPGK : pKd value = 7.59

Reference source for all entries: patent US20240400708A1
